RUN CONDITIONS: 298.15 K; 101.3 kPa; Liquid
PARAMETER MEASURED: mass density (kg/m3)
// units = kg/m3; emit number, no label

[Q] I'd like to know its mass density. The molecule in question is CCCC(C)=O [pentan-2-one]
[A] 801.39

[Q] Again, but for CC(C)=O [acetone]
[A] 784.37

[Q] Again, but for CCOC(=O)OCC [diethyl carbonate]
[A] 969.24

[Q] Again, but for CCC(C)=O [butanone]
[A] 799.7

====

Field: speed of sound. Provide a value for each of the molecules that follow.
RUN CONDITIONS: 298.15 K; 101.3 kPa; Liquid
// units = m/s; emit number, no label

[Q] I'd like to know its speed of sound. The molecule in question is CC(C)=O
[A] 1162

[Q] Again, but for CCC(C)=O
[A] 1192

[Q] Again, but for CCOC(=O)OCC [diethyl carbonate]
[A] 1178

[Q] Again, but for CCCC(C)=O
[A] 1212
